Each recorded value in this set is attributed to ChEMBL document CHEMBL1133968.

test system: Streptococcus pneumoniae; experiment: Tested for minimal growth inhibitory concentration against Streptococcus pneumoniae ATCC 49619; type: functional
readoutName: MIC (µg/mL)
Report as a plain number; the unit µg/mL is understood.

Use the examples below as a reference point.
entrySmiles: N[C@@H](CCB(O)O)C(=O)O
targetDesc: Streptococcus pneumoniae
MIC (µg/mL): 3

entrySmiles: CNC(=O)CNC(=O)[C@@H](N)CCB1O[C@@]2(C)CCC3C[C@@]2(O1)C3(C)C
targetDesc: Streptococcus pneumoniae
MIC (µg/mL): 16

The molecule listed as `CNC(=O)[C@@H](N)CCB1O[C@@]2(C)CCC3C[C@@]2(O1)C3(C)C` has a reported MIC of 32

The molecule listed as `COC(=O)[C@@H](N)CCB1O[C@@]2(C)CCC3C[C@@]2(O1)C3(C)C` has a reported MIC of 2

The molecule listed as `COC(=O)[C@@H](N)CCB(O)O` has a reported MIC of 2

---

biological target: Aspartyl/glutamyl-tRNA(Asn/Gln) amidotransferase subunit A (Streptococcus pyogenes serotype M1); assay: In vitro inhibitory concentration against Glutaminase activity of bacterial Glu-tRNA-Gln […] (Glu-AdT)
Sequence (Q99YC0 whole entry, looked up): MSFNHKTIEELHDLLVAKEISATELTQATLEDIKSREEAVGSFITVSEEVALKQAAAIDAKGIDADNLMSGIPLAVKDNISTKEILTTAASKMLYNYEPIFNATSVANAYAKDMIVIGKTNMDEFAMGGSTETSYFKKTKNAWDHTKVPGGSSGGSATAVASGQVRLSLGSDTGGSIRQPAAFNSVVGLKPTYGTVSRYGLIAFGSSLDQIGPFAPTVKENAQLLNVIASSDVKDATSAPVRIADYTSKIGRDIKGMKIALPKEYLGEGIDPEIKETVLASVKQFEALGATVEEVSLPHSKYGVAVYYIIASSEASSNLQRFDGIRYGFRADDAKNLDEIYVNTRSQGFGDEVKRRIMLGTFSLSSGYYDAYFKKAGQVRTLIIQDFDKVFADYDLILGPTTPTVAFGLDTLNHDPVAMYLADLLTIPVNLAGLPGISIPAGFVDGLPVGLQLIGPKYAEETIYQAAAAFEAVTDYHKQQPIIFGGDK
pIC50: −log10 of the molar value.
# maps each entry to its pIC50

Use the examples below as a reference point.
entrySmiles: CC(=O)N[C@@H](CCB1O[C@@]2(C)CCC3C[C@@]2(O1)C3(C)C)C(=O)O
assayValue: < 4.10
--
entrySmiles: CC(C)(C)OC(=O)NCCCB1O[C@@]2(C)CCC3C[C@@]2(O1)C3(C)C
assayValue: < 4.10
--
entrySmiles: COC(=O)[C@H](CCCB1O[C@@]2(C)CCC3C[C@@]2(O1)C3(C)C)NC(=O)OCc1ccccc1
assayValue: < 4.10
--
entrySmiles: CNC(=O)[C@@H](N)CCB1O[C@@]2(C)CCC3C[C@@]2(O1)C3(C)C
assayValue: < 4.10

The compound listed as `COC(=O)[C@@H](N)CCB(O)O` has a reported pIC50 of 5.89

The compound listed as `CC1(C)C2CC[C@]3(C)OB(CC[C@H](NC(=O)CN)C(=O)O)O[C@]13C2` has a reported pIC50 of < 4.10

The compound listed as `CC1(C)C2CC[C@]3(C)OB(CCCN)O[C@]13C2` has a reported pIC50 of < 4.10

The compound listed as `CC1(C)C2CC[C@]3(C)OB(CCC[C@H](N)C(=O)O)O[C@]13C2` has a reported pIC50 of < 4.10

The compound listed as `N[C@@H](CCB(O)O)C(=O)O` has a reported pIC50 of 5.80

The compound listed as `CC1(C)C2CC[C@]3(C)OB(CC[C@H](N)C(=O)NS(=O)(=O)c4ccccc4)O[C@]13C2` has a reported pIC50 of 4.40

The compound listed as `CC1(C)C2CC[C@]3(C)OB(CC[C@H](N)C(=O)NS(=O)(=O)C(F)(F)F)O[C@]13C2` has a reported pIC50 of 4.26

The compound listed as `COC(=O)[C@@H](N)CCCB1O[C@@]2(C)CCC3C[C@@]2(O1)C3(C)C` has a reported pIC50 of < 4.10

The compound listed as `CC(C)(C)OC(=O)[C@@H](N)CCB1O[C@@]2(C)CCC3C[C@@]2(O1)C3(C)C` has a reported pIC50 of < 4.10

The compound listed as `COC(=O)[C@H](CCB1O[C@@]2(C)CCC3C[C@@]2(O1)C3(C)C)NC(=O)OCc1ccccc1` has a reported pIC50 of < 4.10

The compound listed as `CC1(C)C2CC[C@]3(C)OB(CCC[C@H](NC(=O)OCc4ccccc4)C(=O)O)O[C@]13C2` has a reported pIC50 of < 4.10

The compound listed as `CNC(=O)CNC(=O)[C@@H](N)CCB1O[C@@]2(C)CCC3C[C@@]2(O1)C3(C)C` has a reported pIC50 of 4.40

The compound listed as `CC1(C)C2CC[C@]3(C)OB(CC[C@H](NC(=O)OCc4ccccc4)C(=O)O)O[C@]13C2` has a reported pIC50 of < 4.10

The compound listed as `COC(=O)[C@@H](N)CCB1O[C@@]2(C)CCC3C[C@@]2(O1)C3(C)C` has a reported pIC50 of 5.82

The compound listed as `CC1(C)C2CC[C@]3(C)OB(CC[C@H](N)C(=O)NS(=O)(=O)c4ccc(N)cc4)O[C@]13C2` has a reported pIC50 of < 4.10
